EXPERIMENT: Tissue distribution, mouse
Format: in vivo
SETTINGS: brain, dose 50 mg/kg, read-out: Brain 0.5 h
READOUT: concentration at 0.5 h (ng/g)
Just the number in ng/g, nothing appended.

// query concentration at 0.5 h value for entry FC(F)(F)c1cc2c(NC3CCCc4ccccc43)ncnc2[nH]1 (stereo not shown)
3340

====

Quick reference: Ratio** of the listed items.
Tested on: mitotoxicity
EXPERIMENT: Mitotox safety margin (therapeutic window)
Format: cell-based
SETTINGS: highest concentration with no observable mitotoxicity (μM) divided by the EC50 (μM) of the compound
In your answer, state the number alone without any accompanying words.

Past entries and their recorded results:
* FC(F)(F)c1cc2c(N[C@@H]3CCOc4ccccc43)ncnc2[nH]1 | 8.85
* CN1CC[C@H](Nc2ncnc3[nH]c(C(F)(F)F)cc23)c2ccccc21 | 30
* O[C@@H]1Cc2ccccc2[C@H]1Nc1ncnc2[nH]c(C(F)(F)F)cc12 | 1.66
* O[C@H]1Cc2ccccc2[C@@H]1Nc1ncnc2[nH]c(C(F)(F)F)cc12 | 1.35
* OC[C@@H]1CCc2ccccc2[C@H]1Nc1ncnc2[nH]c(C(F)(F)F)cc12 | 7.25

// query Ratio** value for entry N#Cc1cccc2c1CCCC2Nc1ncnc2[nH]c(C(F)(F)F)cc12 (stereo not shown)
8.39

Next compound up: FC(F)(F)c1cc2c(NC3CCCc4ccccc43)ncnc2[nH]1 (stereo not shown)
40.02

Next compound up: c1ccc2c(c1)CCC[C@H]2Nc1ncnc2[nH]c(C3CC3)cc12
53.2

Next compound up: CC[C@@H]1CCc2ccccc2[C@@H]1Nc1ncnc2[nH]c(C(F)(F)F)cc12
13.8

Next compound up: C[C@H]1CCc2ccccc2[C@H]1Nc1ncnc2[nH]c(C(F)(F)F)cc12
7.74

====

Test system: HeLa MKYP cells
EXPERIMENT: Toxicity / cell death measured by DAPI staining (take-up)
Type: cell-based
SETTINGS: Table 3 Supplement B; 25 uM compound, 1 uM FO
Quick reference: Max cell death at 25 uM compound, 1 uM FO of the listed items.

Past entries and their recorded results:
* CO[C@H]1COc2ccccc2[C@H]1Nc1ncnc2[nH]c(C(F)(F)F)cc12 | 3.555%
* c1ccc2c(c1)OCC[C@H]2Nc1ncnc2[nH]c(C3CC3)cc12 | 17.3%
* Oc1ccc2c(c1)CCC[C@H]2Nc1ncnc2[nH]c(C(F)(F)F)cc12 | 11%
* CO[C@@H]1COc2ccccc2[C@@H]1Nc1ncnc2[nH]c(C(F)(F)F)cc12 | 12.11%
* OC[C@H]1CCc2ccccc2[C@@H]1Nc1ncnc2[nH]c(C(F)(F)F)cc12 | 30.87%

// query Max cell death at 25 uM compound, 1 uM FO value for entry OC1CCc2ccccc2C1Nc1ncnc2[nH]c(C(F)(F)F)cc12 (centres unmarked)
12.8%

Next compound up: C[C@@H]1CCc2ccccc2[C@H]1Nc1ncnc2[nH]c(C(F)(F)F)cc12
23.8%

Next compound up: CO[C@@H]1COc2ccccc2[C@H]1Nc1ncnc2[nH]c(C(F)(F)F)cc12
10.645%

====

EXPERIMENT: Visual inspection of crystallization
Assay type: physicochemical
Design: key: 1: yes crystals; 0: no crystals
SETTINGS: 25.0 μM; Tables 5A-5D
Quick reference: Visual inspection of crystallization of the listed items.
In your answer, state the number alone without any accompanying words.

// query Visual inspection of crystallization value for entry CC(Nc1ncnc2[nH]cnc12)c1ccccc1 (centres unmarked) [Compound 71]
0

Next compound up: c1ncc(CNc2ncnc3[nH]cnc23)cn1 [Compound 67]
0

Next compound up: CN(C)C1CCC(CNc2ncnc3[nH]c(C(F)(F)F)cc23)CC1 (centres unmarked) [Compound 50]
0

Next compound up: CC(Nc1ncnc2[nH]c(C3CC3)nc12)c1ccccc1 (centres unmarked) [Compound 28]
0

Next compound up: COc1ncc(CNc2ncnc3[nH]c(C(F)(F)F)cc23)cn1 [Compound 66]
1

====

Test system: HeLa MKYP cells
EXPERIMENT: Toxicity / cell death measured by DAPI staining (take-up)
Assay type: cell-based
SETTINGS: Table 3; 50 μM
Label YES when Toxicity (% positive for DAPI takeup @ 50 μM) is at or above 10%; anything below gets NO.

- C[C@@H](Nc1ncnc2[nH]cnc12)c1ccccc1 [Compound 63]: YES

Please indicate if the recorded Toxicity (% positive for DAPI takeup @ 50 μM) for C[C@@H](Nc1nccc2[nH]cnc12)c1ccccc1 meets or exceeds 10%.
NO

Next compound up: c1ccc(C2(Nc3ncnc4[nH]cnc34)CC2)cc1
YES

Next compound up: OC[C@H]1CCc2ccccc2[C@@H]1Nc1ncnc2[nH]c(C(F)(F)F)cc12
YES

====

EXPERIMENT: In vivo summary, pharmacokinetics, rat
SETTINGS: in vivo, PO 10 mg/kg, Table 8B, read-out: C0
READOUT: C0 (ng/mL)
Just the number in ng/mL, nothing appended.

// query C0 value for entry FC(F)(F)c1cc2c(NC3CCCc4ccccc43)ncnc2[nH]1 (stereo not shown)
2.6

====

Quick reference: Toxicity (% positive for DAPI take-up at 50 μM)* of the listed items.
Test system: HeLa MKYP cells
EXPERIMENT: Toxicity / cell death measured by DAPI staining (take-up)
Assay type: cell-based
SETTINGS: Table 3 Supplement A; 50 μM
Just the number in %, nothing appended.

Past entries and their recorded results:
* c1ccc(CCNc2ncnc3[nH]cnc23)cc1 | 23.09
* c1ccc2c(c1)OCC[C@H]2Nc1ncnc2[nH]cnc12 | 15.96
* COc1ncc(CNc2ncnc3[nH]c(C(F)(F)F)cc23)cn1 | 5.76

Observed Toxicity (% positive for DAPI take-up at 50 μM)* on HeLa MKYP cells for C[C@@H](Nc1ncnc2[nH]c(C3CC3)nc12)c1ccccc1 , please.
12.33

Next compound up: FC(F)(F)c1cc2c(N[C@@H]3CCOc4ccccc43)ncnc2[nH]1
21.05

Next compound up: CCC(Nc1ncnc2[nH]c(C(F)(F)F)cc12)c1cncnc1 (stereo not drawn)
15.86

Next compound up: c1ccc2c(c1)CC[C@@H]2Nc1ncnc2[nH]cnc12
16.16

Next compound up: C[C@H](Nc1ncnc2[nH]c(C(F)(F)F)cc12)c1ccccc1
92.03

Next compound up: FC(F)(F)c1cc2c(NC3CCCc4ncncc43)ncnc2[nH]1 (stereo not drawn)
11.97

====

EXPERIMENT: Tissue distribution, mouse
Format: in vivo
SETTINGS: plasma, dose 10 mg/kg, read-out: Plasma 2 h
READOUT: concentration at 2 h

// query concentration at 2 h value for entry FC(F)(F)c1cc2c(NC3CCCc4ccccc43)ncnc2[nH]1 (stereo not shown)
146 ng/g

====

EXPERIMENT: Tissue distribution, mouse
Type: in vivo
SETTINGS: brain, dose 10 mg/kg, read-out: Brain 1 h
READOUT: concentration at 1 h (ng/g)
Just the number in ng/g, nothing appended.

// query concentration at 1 h value for entry FC(F)(F)c1cc2c(NC3CCCc4ccccc43)ncnc2[nH]1 (stereo not shown)
737

====

Tested on: HeLa MKYP cells
EXPERIMENT: Toxicity / cell death measured by DAPI staining (take-up)
Type: cell-based
SETTINGS: Table 3 Supplement A; 50 μM
READOUT: Toxicity (% positive for DAPI take-up at 50 μM)* (%)
Just the number in %, nothing appended.

Past entries and their recorded results:
• C[C@H](Nc1ncnc2[nH]cnc12)c1ccccc1 [Compound 27] = 13.52
• O=S1(=O)Cc2ccccc2C(Nc2ncnc3[nH]c(C(F)(F)F)cc23)C1 (centres unmarked) [Compound 79] = 13.18
• OC[C@@H](Nc1ncnc2[nH]cnc12)c1ccccc1 [Compound 61] = 8.9

// query Toxicity (% positive for DAPI take-up at 50 μM)* value for entry c1ccc2c(c1)OCC[C@@H]2Nc1ncnc2[nH]cnc12 [Compound 59]
19.76

Next compound up: c1ccc2c(c1)CC[C@H]2Nc1ncnc2[nH]cnc12 [Compound 55]
10.31

====

EXPERIMENT: In vivo pharmacokinetic properties (Table 7)
SETTINGS: IV (1 mg/kg)
READOUT: Cmax (nM)
Just the number in nM, nothing appended.

// query Cmax value for entry FC(F)(F)c1cc2c(NC3CCCc4ccccc43)ncnc2[nH]1 (stereo not shown)
1450

====

Quick reference: Toxicity (% positive for DAPI take-up at 50 μM)* of the listed items.
Test system: HeLa MKYP cells
EXPERIMENT: Toxicity / cell death measured by DAPI staining (take-up)
Assay type: cell-based
SETTINGS: human, 50 μM
Note: state the figure and append the unit.

// query Toxicity (% positive for DAPI take-up at 50 μM)* value for entry C[C@@H](Nc1ncnc2[nH]c(C(F)(F)F)cc12)c1cncnc1
22.95%

Next compound up: c1ncc(CNc2ncnc3[nH]cnc23)cn1
5.33%

Next compound up: c1ncc(CNc2ncnc3[nH]c(C4CC4)nc23)cn1
7.06%

Next compound up: C[C@H](Nc1ncnc2[nH]c(C(F)(F)F)cc12)c1cncnc1
23.68%

Entry source: patent US20220162215A1
